tested on: HT-29; test: Antitumor activity against human HT-29 cells; assay type: functional, cell-based
measuredAttribute: IC50 (µM)
Write down the numeric answer in µM and omit the unit.

Find the measured IC50 of CC1=C(CC/C(C)=C/CC/C(C)=C/CCC(CC(=O)O)C(=O)[O-])C(C)(C)CCC1.O=C1c2ccccc2-[n+]2ccc3c([nH]c4ccccc43)c21 (configuration not stated) and report it.
1.4

###

system: SF-539; experiment: Antitumor activity against human SF539 cells; assay type: functional, cell-based
measuredAttribute: pIC50
Notebook: values listed as pIC50 are -log10 of the concentration (mol/L).

{"molecule": "O=C1c2ccccc2-[n+]2ccc3c([nH]c4ccccc43)c21.[Cl-] [FASCAPLYSIN CHLORIDE]", "pIC50": 5.38}

Retrieve pIC50 on SF-539; query CC1=C(CC/C(C)=C/CC/C(C)=C/CCC(CC(=O)O)C(=O)[O-])C(C)(C)CCC1.O=C1c2ccccc2-[n+]2ccc3c([nH]c4ccccc43)c21 (configuration not stated)
5.66

###

tested on: MCF7; test: Antitumor activity against […] human MCF7 cells; format: functional, cell-based
measuredAttribute: IC50

In the examples that follow, each entry is paired with its recorded IC50.
{"compound": "O=C1c2ccc(Br)cc2-[n+]2ccc3c([nH]c4ccccc43)c21.[Cl-]", "reported": "5.3 µM"}
{"compound": "CC1=C(CC/C(C)=C/CC/C(C)=C/CCC(CC(=O)O)C(=O)[O-])C(C)(C)CCC1.O=C1c2ccccc2-[n+]2ccc3c([nH]c4ccccc43)c21 (stereo not drawn) [FASCAPLYSIN A]", "reported": "> 10 µM"}

Identify measured IC50 associated with O=C1c2ccccc2-[n+]2ccc3c([nH]c4ccccc43)c21.[Cl-] [FASCAPLYSIN CHLORIDE]
> 10 µM

###

test system: DU-145; assay: Antitumor activity against human DU145 cells; assay type: functional, cell-based
measuredAttribute: pIC50
Please express pIC50 as -log10 of the molar concentration.

{"compound": "CC1=C(CC/C(C)=C/CC/C(C)=C/CCC(CC(=O)O)C(=O)[O-])C(C)(C)CCC1.O=C1c2ccccc2-[n+]2ccc3c([nH]c4ccccc43)c21 (configuration not stated) [FASCAPLYSIN A]", "pIC50": 5.25}

Now for the compound whose pIC50 we want.
Using the record for O=C1c2ccccc2-[n+]2ccc3c([nH]c4ccccc43)c21.[Cl-] [FASCAPLYSIN CHLORIDE] , state its measured pIC50.
5.31

###

tested on: CCRF-CEM; experiment: Antitumor activity against human CCRF-CEM cells; type: functional, cell-based
pIC50: −log10 of the molar value.
measuredAttribute: pIC50

{"compound": "CC1=C(CC/C(C)=C/CC/C(C)=C/CCC(CC(=O)O)C(=O)[O-])C(C)(C)CCC1.O=C1c2ccccc2-[n+]2ccc3c([nH]c4ccccc43)c21 (configuration not stated) [FASCAPLYSIN A]", "reported": "< 5.00"}

We now examine a further compound.
Determine reported pIC50 for O=C1c2ccccc2-[n+]2ccc3c([nH]c4ccccc43)c21.[Cl-] [FASCAPLYSIN CHLORIDE] ; test system: CCRF-CEM.
< 5.00

###

test system: NCI-H322M; assay: Antitumor activity against human NCI-H322M cells; type: functional, cell-based
// IC50 lookup, one value per entry
# output: bare number, implied unit µM

Answered examples (2):
{"compound": "O=C1c2ccc(Br)cc2-[n+]2ccc3c([nH]c4ccccc43)c21.[Cl-]", "reported": 0.65}
{"compound": "CC1=C(CC/C(C)=C/CC/C(C)=C/CCC(CC(=O)O)C(=O)[O-])C(C)(C)CCC1.O=C1c2ccccc2-[n+]2ccc3c([nH]c4ccccc43)c21 (stereo not drawn) [FASCAPLYSIN A]", "reported": 4.3}

// next entry
Indicate its recorded IC50; the compound in question is O=C1c2ccccc2-[n+]2ccc3c([nH]c4ccccc43)c21.[Cl-] [FASCAPLYSIN CHLORIDE]
5

Origin of values: ChEMBL document CHEMBL1151200
